Origin of the recorded values: PubChem BioAssay AID2539

# subject-of-test: NADPH oxidase 2 (Homo sapiens)
# method: NADPH oxidase isoform panel inhibitors – cell-based, HEK293 transfected, luminol chemiluminescence, powder samples, selectivity assay for NOX1 inhibitor project, late-stage follow-up (AID 2539)
# protocol-conditions: HEK293 transfected NOX2/3/4, luminol ROS chemiluminescence; NOX2; at 10 µM; stronger effect = higher value
assay-endpoint: inhibition (%)
Give your result in % as a bare value.

### Prompt I'd like to know its inhibition. The compound in question is CN(C)c1ccc(NC(=O)Nc2ccc(OCc3ccccc3)cc2)cc1
### Response 32

### Prompt I'd like to know its inhibition. The compound in question is c1ccc2c(c1)Nc1nc3ccccc3nc1N2
### Response 2

### Prompt I'd like to know its inhibition. The compound in question is Cc1cc(Cl)ccc1NC(=S)NNC(=S)Nc1ccc(F)cc1
### Response 6

### Prompt I'd like to know its inhibition. The compound in question is CN(C)c1ccc(/C=N/Nc2c(Cl)cncc2Cl)cc1
### Response 19

### Prompt I'd like to know its inhibition. The compound in question is COc1cc(-c2nc(-c3ccccc3)c(-c3ccccc3)[nH]2)ccc1O
### Response -7

### Prompt I'd like to know its inhibition. The compound in question is FC(F)(F)c1ccc2c(c1)Nc1ccccc1S2
### Response 20

### Prompt I'd like to know its inhibition. The compound in question is O=C(Oc1ccccc1N1CCCCC1)c1sc2ccccc2c1Cl
### Response -3

---

# subject-of-test: NADPH oxidase 3 (Homo sapiens)
# method: NADPH oxidase isoform panel inhibitors – cell-based, HEK293 transfected, luminol chemiluminescence, powder samples, selectivity assay for NOX1 inhibitor project, late-stage follow-up (AID 2539)
# protocol-conditions: HEK293 transfected NOX2/3/4, luminol ROS chemiluminescence; NOX3; at 10 µM; stronger effect = higher value
The source made the active and inactive calls.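 Rule for the calls: active = at least 50% inhibition of the cell reactive oxygen species light signal; inactive = the rest.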
Record form. Attribute: inhibition. Fill in for each entry.

### Prompt I'd like to know its inhibition. The molecule in question is Cc1cc(Cl)ccc1NC(=S)NNC(=S)Nc1ccc(F)cc1
### Response 25% (inactive)

### Prompt I'd like to know its inhibition. The molecule in question is c1ccc2c(c1)Nc1nc3ccccc3nc1N2
### Response -24% (inactive)

### Prompt I'd like to know its inhibition. The molecule in question is O=C(Oc1ccccc1N1CCCCC1)c1sc2ccccc2c1Cl
### Response 3% (inactive)

### Prompt I'd like to know its inhibition. The molecule in question is CN(C)c1ccc(/C=N/Nc2c(Cl)cncc2Cl)cc1
### Response 3% (inactive)

### Prompt I'd like to know its inhibition. The molecule in question is COc1cc(-c2nc(-c3ccccc3)c(-c3ccccc3)[nH]2)ccc1O
### Response 61%

### Prompt I'd like to know its inhibition. The molecule in question is CN(C)c1ccc(NC(=O)Nc2ccc(OCc3ccccc3)cc2)cc1
### Response 52%

### Prompt I'd like to know its inhibition. The molecule in question is FC(F)(F)c1ccc2c(c1)Nc1ccccc1S2
### Response 10% (inactive)

---

# subject-of-test: NADPH oxidase 4 (Homo sapiens) (UniProt Q9NPH5)
# Sequence (Q9NPH5 whole entry, looked up, canonical isoform): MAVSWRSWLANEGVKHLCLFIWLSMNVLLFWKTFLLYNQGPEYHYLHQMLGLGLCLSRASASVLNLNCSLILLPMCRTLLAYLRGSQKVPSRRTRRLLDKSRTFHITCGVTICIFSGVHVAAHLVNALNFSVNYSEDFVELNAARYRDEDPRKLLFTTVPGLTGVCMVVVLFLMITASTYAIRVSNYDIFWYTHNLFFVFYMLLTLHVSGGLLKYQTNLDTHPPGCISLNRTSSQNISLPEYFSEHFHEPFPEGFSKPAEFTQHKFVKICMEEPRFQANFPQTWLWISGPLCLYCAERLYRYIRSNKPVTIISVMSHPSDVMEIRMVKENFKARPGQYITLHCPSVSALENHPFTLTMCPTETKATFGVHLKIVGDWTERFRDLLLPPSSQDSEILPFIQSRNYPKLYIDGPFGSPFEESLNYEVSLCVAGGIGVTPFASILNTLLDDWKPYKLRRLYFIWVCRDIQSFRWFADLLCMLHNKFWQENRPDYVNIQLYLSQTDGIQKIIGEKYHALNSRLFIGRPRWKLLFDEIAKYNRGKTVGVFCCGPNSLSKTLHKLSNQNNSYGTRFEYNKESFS
# method: NADPH oxidase isoform panel inhibitors – cell-based, HEK293 transfected, luminol chemiluminescence, powder samples, selectivity assay for NOX1 inhibitor project, late-stage follow-up (AID 2539)
# protocol-conditions: HEK293 transfected NOX2/3/4, luminol ROS chemiluminescence; NOX4; at 10 µM; stronger effect = higher value
Entry flag: YES if inhibition reaches 20%; NO if it does not.

### Prompt I'd appreciate it if you could say whether FC(F)(F)c1ccc2c(c1)Nc1ccccc1S2 has inhibition at least equal to 20%.
### Response NO

### Prompt I'd appreciate it if you could say whether O=C(Oc1ccccc1N1CCCCC1)c1sc2ccccc2c1Cl has inhibition at least equal to 20%.
### Response NO

### Prompt I'd appreciate it if you could say whether CN(C)c1ccc(/C=N/Nc2c(Cl)cncc2Cl)cc1 has inhibition at least equal to 20%.
### Response NO

### Prompt I'd appreciate it if you could say whether CN(C)c1ccc(NC(=O)Nc2ccc(OCc3ccccc3)cc2)cc1 has inhibition at least equal to 20%.
### Response YES

### Prompt I'd appreciate it if you could say whether Cc1cc(Cl)ccc1NC(=S)NNC(=S)Nc1ccc(F)cc1 has inhibition at least equal to 20%.
### Response YES

### Prompt I'd appreciate it if you could say whether c1ccc2c(c1)Nc1nc3ccccc3nc1N2 has inhibition at least equal to 20%.
### Response NO

### Prompt I'd appreciate it if you could say whether COc1cc(-c2nc(-c3ccccc3)c(-c3ccccc3)[nH]2)ccc1O has inhibition at least equal to 20%.
### Response YES
